// data source = the supplement of paper PMC6555819

Test system: THRa:RXRa (NR concentration 90 nM, RXRa partner concentration 90 nM)
Test: PBM binding z-score (relative to random genomic background probes); higher = stronger binding; sequences stand for … in GC…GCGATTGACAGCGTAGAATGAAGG
Property: PBM binding z-score

[[record]]
sequence_entry = "AATACAGGGTCATAGTAGGCCAGAGTACGCACAG"
test_target = "THRa:RXRa (NR concentration 90 nM, RXRa partner concentration 90 nM)"
property = "PBM binding z-score"
value_reported = 4.23

[[record]]
sequence_entry = "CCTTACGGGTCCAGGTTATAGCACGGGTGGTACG"
test_target = "THRa:RXRa (NR concentration 90 nM, RXRa partner concentration 90 nM)"
property = "PBM binding z-score"
value_reported = 0.171

[[record]]
sequence_entry = "TCTCGGAGGACACGAAGCTCAGAGCTTTCCAGAG"
test_target = "THRa:RXRa (NR concentration 90 nM, RXRa partner concentration 90 nM)"
property = "PBM binding z-score"
value_reported = 1.23

[[record]]
sequence_entry = "AGAATGAGGTTATTAAAATCAGGGAATTGCGGTC"
test_target = "THRa:RXRa (NR concentration 90 nM, RXRa partner concentration 90 nM)"
property = "PBM binding z-score"
value_reported = 1.89

[[record]]
sequence_entry = "CCTACTGGGCCACGAAAGGTCATTCATTCAGTGA"
test_target = "THRa:RXRa (NR concentration 90 nM, RXRa partner concentration 90 nM)"
property = "PBM binding z-score"
value_reported = 3.8

[[record]]
sequence_entry = "TCGAGTAGGTTACCAATGGTGCATTCAGCTTTCT"
test_target = "THRa:RXRa (NR concentration 90 nM, RXRa partner concentration 90 nM)"
property = "PBM binding z-score"
value_reported = -0.118

[[record]]
sequence_entry = "GGAACGAGGGAATTCGAGTTGATAGCATGGCGAT"
test_target = "THRa:RXRa (NR concentration 90 nM, RXRa partner concentration 90 nM)"
property = "PBM binding z-score"
value_reported = 0.1

[[record]]
sequence_entry = "CCTAGTCGGTCAAGGTCACACACGCTATAGGTAC"
test_target = "THRa:RXRa (NR concentration 90 nM, RXRa partner concentration 90 nM)"
property = "PBM binding z-score"
value_reported = 4.26

[[record]]
sequence_entry = "ATCTCTAGGTAAGACTCAGCTCAGTGAAGAACGC"
test_target = "THRa:RXRa (NR concentration 90 nM, RXRa partner concentration 90 nM)"
property = "PBM binding z-score"
value_reported = 0.124

[[record]]
sequence_entry = "CCTGGTAGGTCATGGTCAGCTAATCTACAGTATG"
test_target = "THRa:RXRa (NR concentration 90 nM, RXRa partner concentration 90 nM)"
property = "PBM binding z-score"
value_reported = 2.22

[[record]]
sequence_entry = "TAGCCTAGGTCATTGCGCCAGTATAGTACGCATC"
test_target = "THRa:RXRa (NR concentration 90 nM, RXRa partner concentration 90 nM)"
property = "PBM binding z-score"
value_reported = 2.8

[[record]]
sequence_entry = "CAAACTTGGTCAAGGTCAAAGTCGGTTTGTGCCA"
test_target = "THRa:RXRa (NR concentration 90 nM, RXRa partner concentration 90 nM)"
property = "PBM binding z-score"
value_reported = 3.92

[[record]]
sequence_entry = "GCATATAGGTAATACAAGGTGAAAATCCGATTGT"
test_target = "THRa:RXRa (NR concentration 90 nM, RXRa partner concentration 90 nM)"
property = "PBM binding z-score"
value_reported = 3.98

[[record]]
sequence_entry = "CCTTACGAGTCAAGGTTATAGCACGGGTGGTACG"
test_target = "THRa:RXRa (NR concentration 90 nM, RXRa partner concentration 90 nM)"
property = "PBM binding z-score"
value_reported = 1.58

[[record]]
sequence_entry = "ATCGAAAGGTCGTGAGGTGCGTATACAGAAAGGC"
test_target = "THRa:RXRa (NR concentration 90 nM, RXRa partner concentration 90 nM)"
property = "PBM binding z-score"
value_reported = 2.45

[[record]]
sequence_entry = "GCAGACAGGTGAAACACAGGTAACTCAGGGTGGC"
test_target = "THRa:RXRa (NR concentration 90 nM, RXRa partner concentration 90 nM)"
property = "PBM binding z-score"
value_reported = 1.28

[[record]]
sequence_entry = "ATCGAAAGGTCCAGGTGAGTATAGAGAAAGGGAA"
test_target = "THRa:RXRa (NR concentration 90 nM, RXRa partner concentration 90 nM)"
property = "PBM binding z-score"
value_reported = 0.94

[[record]]
sequence_entry = "TCTCTGAGGACACGAAAGGTCAGAGCTCGACATC"
test_target = "THRa:RXRa (NR concentration 90 nM, RXRa partner concentration 90 nM)"
property = "PBM binding z-score"
value_reported = 4.45

[[record]]
sequence_entry = "ACTATTAGTTGACTTAGTGCAACCGATACGACGC"
test_target = "THRa:RXRa (NR concentration 90 nM, RXRa partner concentration 90 nM)"
property = "PBM binding z-score"
value_reported = 0.0819

